# Tested on: Aspergillus niger MTCC 282
# assay-info: Antifungal activity, Muller Hinton Broth dilution MIC
# Assay type: cell-based
# assay-context: Aspergillus niger MTCC 282; Muller Hinton Broth dilution; Sabouraud's dextrose broth, 28 °C, aerobic, 48 hours; triplicate experiments
Residues, ends and D or L forms follow the SMILES beside them.
quantity: MIC (anti-fungicidal activity) A. n. (µg/mL)
The reply should be a number in µg/mL, with the unit left off.

Record excerpt, results attached:
compound	experimental-target	readout-value
N=C(N)NCCC[C@H](NC(=O)[C@H](Cc1c[nH]cn1)NC(=O)[C@@H]1CCCN1C(=O)[C@H](CS)NC(=O)[C@@H]1CCCN1)C(=O)N[C@@H](CS)C(=O)O [Compound 7e, H-Pro-Cys-Pro-His-Arg-Cys-OH] (H-PCPHRC-OH)	Aspergillus niger MTCC 282	55
CC(C)[C@H](N)C(=O)N[C@@H](CS)C(=O)N1CCC[C@H]1C(=O)N[C@@H](Cc1c[nH]cn1)C(=O)N[C@@H](CCCNC(=N)N)C(=O)N[C@@H](CS)C(=O)O [Compound 7c, H-Val-Cys-Pro-His-Arg-Cys-OH] (H-VCPHRC-OH)	Aspergillus niger MTCC 282	40
N=C(N)NCCC[C@H](NC(=O)[C@H](Cc1c[nH]cn1)NC(=O)[C@@H]1CCCN1C(=O)[C@H](CS)NC(=O)CN)C(=O)N[C@@H](CS)C(=O)O [Compound 7a, H-Gly-Cys-Pro-His-Arg-Cys-OH] (H-GCPHRC-OH)	Aspergillus niger MTCC 282	65
CC(C)C[C@H](N)C(=O)N[C@@H](CS)C(=O)N1CCC[C@H]1C(=O)N[C@@H](Cc1c[nH]cn1)C(=O)N[C@@H](CCCNC(=N)N)C(=O)N[C@@H](CS)C(=O)O [Compound 7d, H-Leu-Cys-Pro-His-Arg-Cys-OH] (H-LCPHRC-OH)	Aspergillus niger MTCC 282	35
C[C@@H]1[C@H](O)[C@@H](C)/C=C/C=C/CC/C=C/C=C/C=C/C=C/C(O[C@H]2O[C@H](C)[C@@H](O)[C@H](N)[C@@H]2O)CC2O[C@](O)(CC(O)C(O)CCC(O)CC(O)CC(O)CC(=O)O[C@H]1C)CC(O)C2C(=O)O (stereo partly shown) [Nystatin, reference compound]	Aspergillus niger MTCC 282	100
N=C(N)NCCC[C@H](NC(=O)[C@H](Cc1c[nH]cn1)NC(=O)[C@@H]1CCCN1C(=O)[C@H](CS)NC(=O)[C@@H](N)Cc1ccc(O)cc1)C(=O)N[C@@H](CS)C(=O)O [Compound 7f, H-Tyr-Cys-Pro-His-Arg-Cys-OH] (H-YCPHRC-OH)	Aspergillus niger MTCC 282	50

// next item, MIC (anti-fungicidal activity) A. n. requested
*Q* I have this compound here, C[C@H](N)C(=O)N[C@@H](CS)C(=O)N1CCC[C@H]1C(=O)N[C@@H](Cc1c[nH]cn1)C(=O)N[C@@H](CCCNC(=N)N)C(=O)N[C@@H](CS)C(=O)O [Compound 7b, H-Ala-Cys-Pro-His-Arg-Cys-OH] (H-ACPHRC-OH) , and I need its recorded MIC (anti-fungicidal activity) A. n..
*A* 50
